Let's look at some compounds and their measured inhibition.
system: transactivating tegument protein VP16 (Human herpesvirus 1), Gal4-VP16 luciferase reporter; test: VP16 transactivation inhibitors, counter-screen for SRC3 inhibitor project, cell-based, luminescence, high throughput (AID 588794); settings: mammalian cells, VP16-driven luciferase reporter luminescence; at 3.6 µM; hits give high values
Calls of active or inactive are those of the source. Rule as the data show it: active = inhibition above about 30%; inactive = the rest.

Simply: COC(=O)[C@]12OC[C@]34C([C@@H](O)[C@@H]1O)[C@]1(C)CC(=O)C(O)=C(C)[C@@H]1C[C@H]3OC(=O)[C@H](O)[C@@H]24 (stereo partly specified) , transactivating tegument protein VP16 (Human herpesvirus 1), Gal4-VP16 luciferase reporter, inhibition = 64.2% (active)

Simply: C[C@H]1CCC[C@@H](O)CCC/C=C/c2cc(O)cc(O)c2C(=O)O1 , transactivating tegument protein VP16 (Human herpesvirus 1), Gal4-VP16 luciferase reporter, inhibition = 63.4% (active)

Simply: CC1CCOC(=O)C=CC=CC(=O)OC2CC3OC4C5OC5(C)C(O)CC4(COC(=O)C1O)C2(C)C31CO1 (stereo unspecified) , transactivating tegument protein VP16 (Human herpesvirus 1), Gal4-VP16 luciferase reporter, inhibition = 97.3% (active)

Simply: COc1cccc(C(c2nnnn2-c2ccc3c(c2)OCCO3)N2CCC(n3c(=O)[nH]c4ccccc43)CC2)c1OC (stereo unspecified) , transactivating tegument protein VP16 (Human herpesvirus 1), Gal4-VP16 luciferase reporter, inhibition = 35.9% (active)

Simply: Cc1cccc(C)c1-n1nnnc1C(c1cc2ccccc2o1)N1CCC(n2c(=O)[nH]c3ccccc32)CC1 (stereo unspecified) , transactivating tegument protein VP16 (Human herpesvirus 1), Gal4-VP16 luciferase reporter, inhibition = 41.3% (active)

Simply: CCCOC(=O)c1ccc(-[n+]2c(-c3ccccc3)cc(-c3ccccc3)cc2-c2ccccc2)cc1 , transactivating tegument protein VP16 (Human herpesvirus 1), Gal4-VP16 luciferase reporter, inhibition = 65.5% (active)

Simply: CCCCCCCn1c(=O)c(C(=O)Nc2cnccn2)c(O)c2ccccc21 , transactivating tegument protein VP16 (Human herpesvirus 1), Gal4-VP16 luciferase reporter, inhibition = -5.22% (inactive)

Simply: C=C1C(=O)[C@@]23C[C@H]4[C@@H]5[C@@]6(C)CCC[C@@]57[C@@H]2[C@@H](O)[C@@H]1C[C@H]3[C@H]7N4C6 , transactivating tegument protein VP16 (Human herpesvirus 1), Gal4-VP16 luciferase reporter, inhibition = 22% (inactive)

Simply: Cc1cc(-c2ccccc2)cc(-c2ccccc2)[n+]1CCc1ccccc1 , transactivating tegument protein VP16 (Human herpesvirus 1), Gal4-VP16 luciferase reporter, inhibition = 52.1% (active)

Simply: CC[C@@H](O)C[C@H]1CCC[C@@]2(C[C@@H]3OC(=O)/C=C/[C@@](C)(O)[C@@H](O)[C@H](C)[C@@H](O)[C@H](OC4CCC(N(C)C)C(C)O4)[C@@H](O)[C@](C)(O)CCCCC/C=C/[C@@H]4CC(C)(C)O[C@@]4(O)C[C@H](O2)[C@H]3C)O1 (stereo partly specified) , transactivating tegument protein VP16 (Human herpesvirus 1), Gal4-VP16 luciferase reporter, inhibition = 85.9% (active)

Simply: O=c1[nH]c2ccccc2n1C1CCN(C(CCc2ccccc2)c2nnnn2Cc2ccccc2)CC1 (stereo unspecified) , transactivating tegument protein VP16 (Human herpesvirus 1), Gal4-VP16 luciferase reporter, inhibition = 40.3% (active)

Simply: O=c1[nH]c2ccccc2n1C1CCN(C(CCc2ccccc2)c2nnnn2C2CCCC2)CC1 (stereo unspecified) , transactivating tegument protein VP16 (Human herpesvirus 1), Gal4-VP16 luciferase reporter, inhibition = 7.82% (inactive)
